System: HCT-15 colon
Assay: NCI tumour cell line growth inhibition, 48 h
Readout name: GI50

Known results for molecules:
molecule="Oc1ccc2ccccc2c1C1NN=C(c2ccccc2)S1 (centres undefined)" readout_name=GI50 result="0.399 µM"
molecule=Nc1nc2ccc3[nH]ncc3c2c2c1CCCC2 readout_name=GI50 result="1.88 µM"
molecule="CCN(CC)CCCC(C)Nc1c2ccc(Cl)cc2nc2cc(OC)c(OC)cc12 (centres undefined)" readout_name=GI50 result="1.2 µM"
molecule=COc1ccc(-c2nn(-c3cccc(Cl)c3)cc2-c2c(C#N)c(=O)n3[nH]c(-c4ccc(C)cc4)nc3c2C#N)cc1 readout_name=GI50 result="9.95 µM"
molecule=C[C@@H](NC(=O)[C@@H](CC(=O)N1CCC(N2CCCCC2)CC1)N1C(=O)[C@@H](N2C(=O)OC[C@@H]2c2ccccc2)[C@H]1/C=C/c1cccc(Cl)c1)c1ccccc1 readout_name=GI50 result="2.56 µM"
molecule="O=CC(Br)C(Br)c1ccccc1 (centres undefined)" readout_name=GI50 result="0.913 µM"
molecule=O=C(NCCN1CCC(O)CC1)c1cc2c(o1)C(=O)c1ccccc1C2=O readout_name=GI50 result="0.21 µM"
molecule=CC(=O)OC(C)(C)/C=C/C(=O)[C@](C)(O)[C@H]1[C@H](O)C[C@@]2(C)[C@@H]3CC=C4[C@@H](C[C@H](O)C(=O)C4(C)C)[C@]3(CO)C(=O)C[C@]12C readout_name=GI50 result="0.351 µM"

Form field GI50, entry N#Cc1ccc(C2C3=C(CCCC3=O)OC3=C2C(=O)c2ccccc2C3=O)cc1 (centres undefined) : 1.6 µM

Form field GI50, entry CN1C(=O)C(=Cc2cn(Cc3ccccc3)c3ccccc23)C(=O)N(C)C1=O : > 95.6 µM

Form field GI50, entry CCCOC(=O)N[C@H]1CCc2cc(OC)c(OC)c(OC)c2-c2ccc(SC)c(=O)cc21 : < 0.01 µM

Form field GI50, entry O=c1oc(-c2ccccc2)cc2cccc(O)c12 : 19.6 µM

Form field GI50, entry Cc1cc(Nc2ccc(F)cc2)nc(N2CCN(c3ccnc4cc(Cl)ccc34)CC2)n1 : 2.27 µM

Form field GI50, entry O=C(Nc1ccc2[nH]c(C(=O)N3CC(CCl)c4c3cc([N+](=O)[O-])c3ccccc43)cc2c1)c1cc2ccccc2o1 (centres undefined) : > 1100 µM

====

Tested on: U251 CNS
Test: NCI tumour cell line growth inhibition, 48 h
Readout name: TGI

molecule=Clc1cc(OCC23CC4CC(CC(C4)C2)C3)nc(OCC23CC4CC(CC(C4)C2)C3)n1 readout_name=TGI result="> 100 µM"
molecule="COC1=C2C[C@H](O)C(C)C[C@@]2(OC)OC1=O (stereo partly drawn)" readout_name=TGI result="> 100 µM"
molecule=COc1ccc(CCNC(=O)CCCCCO)cc1OC readout_name=TGI result="> 100 µM"
molecule=O=C1NC(=O)C(c2ccc(Cl)cc2)=C1Nc1ccc(Cl)c(C(=O)O)c1 readout_name=TGI result="> 25 µM"
molecule="COC(=O)[C@@]12OC[C@]34C([C@@H](O)C1O)[C@@]1(C)CC(=O)C(O)=C(C)C1C[C@H]3OC(=O)[C@H](OC(=O)/C=C(/c1ccccc1)C(F)(F)F)[C@H]42 (stereo partly drawn)" readout_name=TGI result="> 25 µM"
molecule=COc1cc([C@@H]2c3cc4c(cc3[C@@H](N=Cc3ccc(C(=O)O[C@@H](C(=O)O[C@H]5C[C@@]6(O)[C@@H](OC(=O)c7ccccc7)[C@@H]7[C@]8(OC(C)=O)CO[C@@H]8C[C@H](O)[C@@]7(C)C(=O)[C@H](OC(C)=O)C(=C5C)C6(C)C)[C@@H](NC(=O)c5ccccc5)c5ccccc5)cc3)[C@H]3COC(=O)[C@H]23)OCO4)cc(OC)c1O readout_name=TGI result="> 16.9 µM"
molecule="COC(=O)[C@@]1(O)CC(C)C=C1C=O (stereo partly drawn)" readout_name=TGI result="38.4 µM"
molecule="CC(=O)OC1CC[C@@]2(C)C(CC[C@]3(C)C2CC=C2[C@@H]4CC(C)(C)CCC4(C)CCC23C)[C@@]1(C)C(=O)O (stereo partly drawn)" readout_name=TGI result="32 µM"
molecule=Cc1c(O)c(=O)ccn1CCc1c[nH]c2ccccc12 readout_name=TGI result="> 100 µM"
molecule=COC(=O)c1c(O)ccc2c1c1c(n2Cc2ccccn2)C(=O)c2ccccc2C1=O readout_name=TGI result="> 100 µM"

Now turn to the next molecule.
Form field TGI, entry C/C(CC(=O)Nc1ccc(Cl)cc1)=N\NC(=O)C[n+]1ccccc1 : > 100 µM
